This collection of values is drawn from paper PMC9102502.

Tested target: recombinant human β-amyloid (1–42) (Homo sapiens)
Construct: recombinant human β-amyloid (1–42; ultrapure); purchased Sigma-Aldrich (St. Louis, MO, USA)
Sequence (P05067 672-713 limits assumed): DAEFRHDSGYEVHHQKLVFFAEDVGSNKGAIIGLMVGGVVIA
Assay procedure: Beta-amyloid aggregation, Thioflavin T fluorescence
Format: biochemical
Experimental context: 24 and 48 h; both tested concentrations
Assay metric: effect on Aβ aggregation after a longer incubation time

Compound | Endpoint value
OCCOCCN1CCN(C2=Nc3ccccc3Sc3ccccc32)CC1 | substantially inhibit
O=C(CCCN1CCC(O)(c2ccc(Br)cc2)CC1)c1ccc(F)cc1 | substantially inhibit
O=c1[nH]c2ccccc2n1C1CCN(CCCC(c2ccc(F)cc2)c2ccc(F)cc2)CC1 [Pimozide, pimozide] | substantially inhibit
CN(C)CCCN1c2ccccc2Sc2ccccc21 | substantially inhibit

====

Tested target: BuChE (Homo sapiens)
Sequence (P06276 29-602): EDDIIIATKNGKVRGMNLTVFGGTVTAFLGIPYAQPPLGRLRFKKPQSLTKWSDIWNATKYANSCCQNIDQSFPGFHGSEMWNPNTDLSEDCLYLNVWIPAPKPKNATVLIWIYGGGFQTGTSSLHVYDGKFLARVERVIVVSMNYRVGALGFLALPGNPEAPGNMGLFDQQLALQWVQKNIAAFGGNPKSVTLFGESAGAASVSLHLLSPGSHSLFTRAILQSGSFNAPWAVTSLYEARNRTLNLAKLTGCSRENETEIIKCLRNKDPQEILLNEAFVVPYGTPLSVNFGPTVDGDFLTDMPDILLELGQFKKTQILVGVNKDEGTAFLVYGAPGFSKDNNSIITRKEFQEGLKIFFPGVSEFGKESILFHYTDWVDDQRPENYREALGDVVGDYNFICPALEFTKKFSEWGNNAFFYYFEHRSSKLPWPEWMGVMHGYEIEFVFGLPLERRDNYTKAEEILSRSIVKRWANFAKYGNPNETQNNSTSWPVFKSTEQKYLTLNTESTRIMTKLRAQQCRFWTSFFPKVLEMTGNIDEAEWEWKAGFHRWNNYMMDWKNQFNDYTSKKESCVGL
Assay procedure: Synergism of antipsychotics with donepezil/rivastigmine (binary mixtures), BuChE;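 note: combination index derived by median-effect analysis of combined drug effects on the cholinesterase, with values below 1 meaning synergism, exactly 1 additivity and above 1 antagonism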
Experimental context: rivastigmine 0.75 μmol/L + antipsychotic at TPCmax; ComboSyn
Each item that follows carries a reported CI (combination index), BuChE.
Reply with just the number.

Some compounds with known CI (combination index), BuChE results, for comparison:
Compound | CI (combination index), BuChE
OC1(c2ccc(Cl)c(C(F)(F)F)c2)CCN(CCCC(c2ccc(F)cc2)c2ccc(F)cc2)CC1 [Penfluridol, penfluridol] | 1.08
O=C(CCCN1CCC(O)(c2ccc(Br)cc2)CC1)c1ccc(F)cc1 [Bromperidol, bromperidol] | 0.86
O=C(CCCN1CCC(O)(c2ccc(Cl)cc2)CC1)c1ccc(F)cc1 [Haloperidol, haloperidol] | 1.06

Record request: CI (combination index), BuChE value, item O=C(CCCN1CCC(n2c(O)nc3ccccc32)CC1)c1ccc(F)cc1 [Benperidol, benperidol]
0.95

====

Catalogue of viability of HUVEC under AAPH values
Tested on: HUVEC cells
Assay procedure: WST-1 viability under AAPH-induced oxidative stress, HUVEC
Type: cell-based, human
Experimental context: ½ × TPC (bromperidol 12.5 μg/L, quetiapine 200 μg/L); AAPH 17.5 mmol/L; relative to pure medium control
Numeric answer only, unit % assumed.

Recorded results for 4 compounds are shown here.
Compound | Unit tag | viability of HUVEC under AAPH
OC1(c2ccc(Cl)c(C(F)(F)F)c2)CCN(CCCC(c2ccc(F)cc2)c2ccc(F)cc2)CC1 | % | 80.5
OCCOCCN1CCN(C2=Nc3ccccc3Sc3ccccc32)CC1 | % | 66.8
O=c1[nH]c2ccccc2n1C1CCN(CCCC(c2ccc(F)cc2)c2ccc(F)cc2)CC1 [Pimozide, pimozide] | % | 64.2
O=C(CCCN1CCC(n2c(O)nc3ccccc32)CC1)c1ccc(F)cc1 | % | 82.9

// viability of HUVEC under AAPH lookup, key: O=C(CCCN1CCC(O)(c2ccc(Br)cc2)CC1)c1ccc(F)cc1
66.8

====

Entries annotated with measured CI (combination index), AChE
Tested target: UniProt:P22303
Sequence (P22303 32-617 isoform P22303-2 limits assumed): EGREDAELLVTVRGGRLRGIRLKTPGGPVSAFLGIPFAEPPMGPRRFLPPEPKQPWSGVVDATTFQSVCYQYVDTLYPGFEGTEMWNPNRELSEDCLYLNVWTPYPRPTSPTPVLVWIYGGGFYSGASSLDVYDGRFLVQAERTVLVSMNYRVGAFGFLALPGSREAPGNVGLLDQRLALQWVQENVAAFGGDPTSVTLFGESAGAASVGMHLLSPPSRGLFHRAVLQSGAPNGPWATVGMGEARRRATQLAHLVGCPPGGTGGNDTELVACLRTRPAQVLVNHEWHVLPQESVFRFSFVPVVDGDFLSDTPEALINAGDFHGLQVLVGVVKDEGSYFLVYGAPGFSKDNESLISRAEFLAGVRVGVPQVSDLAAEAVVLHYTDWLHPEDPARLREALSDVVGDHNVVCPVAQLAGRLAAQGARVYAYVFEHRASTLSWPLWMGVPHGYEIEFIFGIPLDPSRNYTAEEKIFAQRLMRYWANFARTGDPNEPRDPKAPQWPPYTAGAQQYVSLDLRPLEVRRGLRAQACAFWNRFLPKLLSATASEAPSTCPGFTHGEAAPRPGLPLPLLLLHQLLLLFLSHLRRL
Assay procedure: Synergism of antipsychotics with donepezil/rivastigmine (binary mixtures), AChE;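 note: antipsychotic concentration kept fixed across all measurements, selected from estimated therapeutic plasma levels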
Experimental context: donepezil 0.005 μmol/L + antipsychotic at TPCmax; ComboSyn; CI < 1 synergism, > 1 antagonism

Look over these answered cases.
Compound | Tested target | Endpoint value
OC1(c2ccc(Cl)c(C(F)(F)F)c2)CCN(CCCC(c2ccc(F)cc2)c2ccc(F)cc2)CC1 [Penfluridol, penfluridol] | UniProt:P22303 | 0.79
O=C(CCCN1CCC(O)(c2ccc(Br)cc2)CC1)c1ccc(F)cc1 [Bromperidol, bromperidol] | UniProt:P22303 | 0.07
O=C(CCCN1CCC(n2c(O)nc3ccccc32)CC1)c1ccc(F)cc1 [Benperidol, benperidol] | UniProt:P22303 | 0.83
O=C(CCCN1CCC(O)(c2ccc(Cl)cc2)CC1)c1ccc(F)cc1 [Haloperidol, haloperidol] | UniProt:P22303 | > 2.50

Looking for the measured CI (combination index), AChE of O=c1[nH]c2ccccc2n1C1CCN(CCCC(c2ccc(F)cc2)c2ccc(F)cc2)CC1 [Pimozide, pimozide] , can you help?
0.50
